- System: SEM cells
- measurementNotes: cell viability relative to DMSO control; higher = less cytotoxic
- assayContext: RPMI 5 mM glucose + 10% FBS; 48 h; 0.0211 µM
quantityMeasured: cell viability (%)
I only need the number, in %, no unit after it.

# input compound: COC(=O)c1ccc2c(c1)NC(=O)/C2=C(\Nc1ccc(N(C)C(=O)CN2CCN(C)CC2)cc1)c1ccccc1 ; wanted: its cell viability
31.7

# input compound: COc1c(C)c2c(c(O)c1C/C=C(\C)CCC(=O)O)C(=O)OC2 ; wanted: its cell viability
109

# input compound: O=C(O)C(=O)c1cn(Cc2ccccc2)c2ccc(-c3ccc(OC(F)(F)F)cc3)cc12 ; wanted: its cell viability
103

# input compound: COc1cc[nH]c2ncc(C(=O)C(=O)N3CCN(C(=O)c4ccccc4)C[C@H]3C)c1-2 ; wanted: its cell viability
116

# input compound: CCCCC(C)(C)[C@H](O)/C=C/[C@H]1[C@H](O)CC(=O)[C@@H]1C/C=C\CCCC(=O)O ; wanted: its cell viability
120

# input compound: COc1ccc2c(c1)CN(C)CC2c1ccc(Cl)c(Cl)c1 (centres undefined) ; wanted: its cell viability
108

# input compound: CCOC(=O)C(C)OC1=CC=CC2=C1\C=C/N(CC(=O)NC3=CC=C4OCCOC4=C3)C2=O (centres undefined) ; wanted: its cell viability
88

# input compound: Cc1csc(-c2nnc(Nc3ccc(Oc4ncccc4-c4ccnc(N)n4)cc3)c3ccccc23)c1 ; wanted: its cell viability
55.2

# input compound: O=C(CCCN1CCN(c2ccc(F)cc2)CC1)NC1c2ccccc2CSc2ccccc21 (centres undefined) ; wanted: its cell viability
115

# input compound: CCCCN(CCCC)CC(O)c1cc(Cl)cc2c1-c1ccc(Cl)cc1/C2=C/c1ccc(Cl)cc1 (centres undefined) ; wanted: its cell viability
95.7

# input compound: CCCCCNC(=O)N1CCC(CN(Cc2ccc(Cl)cc2)Cc2ccc([N+](=O)[O-])s2)C1 (centres undefined) ; wanted: its cell viability
116

====

- Tested on: NOMO1
- measurementNotes: cell viability relative to DMSO control; higher = less cytotoxic
- assayContext: RPMI 5 mM glucose + 10% FBS; 48 h; 0.0211 µM
cell viability values for the compounds below.
I only need the number, in %, no unit after it.

Sample answers from the record:
C[C@@H](CN1CC(=O)NC(=O)C1)N1CC(=O)NC(=O)C1 :: 101
C=C[C@H]1CN2CCC1C[C@@H]2C(O)c1ccnc2ccc(OC)cc12 (stereo not given in full) :: 108
O=C(O)c1cccnc1Nc1cccc(C(F)(F)F)c1 :: 116
OCC(O)C(O)C(O)CO (stereo not given) :: 84.4
NC(=O)c1ccc(N(C(N)=O)c2c(F)cccc2F)nc1-c1ccc(F)cc1F :: 100

# input compound: CN1CC(=O)N2[C@H](c3ccc4c(c3)OCO4)c3[nH]c4ccccc4c3C[C@@H]2C1=O ; wanted: its cell viability
88.4

# input compound: CC(N[C@H]1CCCC[C@@H]1NC(=O)c1ccc(Cl)cc1)c1cccc2ccccc12 (stereo not given in full) ; wanted: its cell viability
114

====

AUC of viability dose-response curve values for the molecules below.
- System: NOMO1
- measurementNotes: AUC of viability dose-response curve (% viability x log10 dose units); higher = less sensitive
- assayContext: RPMI 5 mM glucose + 10% dialyzed FBS; 48 h
A bare number is all that is needed in reply.

OC1=CC=C(C=C1)\C2=C(O)\C(=O)C3=C(O2)C=C(O)C=C3O :: 466

Identify the measured AUC of viability dose-response curve of CCCCN(CCCC)CC(O)c1cc(Cl)cc2c1-c1ccc(Cl)cc1/C2=C/c1ccc(Cl)cc1 (stereo unspecified) for NOMO1.
461

Identify the measured AUC of viability dose-response curve of N[C@@H]1CONC1=O for NOMO1.
464

Identify the measured AUC of viability dose-response curve of ClC/1=C(NCCN2CCOCC2)/C(=O)C3=C(C=CC=N3)C1=O for NOMO1.
406

Identify the measured AUC of viability dose-response curve of CNc1nc(Nc2cnn([C@H]3CCN(C4COC4)C[C@@H]3F)c2Cl)ncc1C(F)(F)F for NOMO1.
391

Identify the measured AUC of viability dose-response curve of Cc1cc(Nc2cc(N3CCN(C)CC3)nc(Sc3ccc(NC(=O)C4CC4)cc3)n2)[nH]n1 for NOMO1.
376

Identify the measured AUC of viability dose-response curve of COc1cc2c(cc1OC)CN(CCc1ccc(NC(=O)c3cc(OC)c(OC)cc3NC(=O)c3cnc4ccccc4c3)cc1)CC2 for NOMO1.
464

Identify the measured AUC of viability dose-response curve of C=CC(=O)Nc1cc(NC(=O)c2ccc(C)c(NC(=O)c3ccno3)c2)cc(C(F)(F)F)c1 for NOMO1.
467

Identify the measured AUC of viability dose-response curve of CCCCOc1c(C(=O)c2c(F)cc(C)cc2F)cnc2[nH]ncc12 for NOMO1.
424

Identify the measured AUC of viability dose-response curve of O=c1cc(-c2ccc(O)c(O)c2)oc2cc(O)cc(O)c12 for NOMO1.
461

Identify the measured AUC of viability dose-response curve of CC(C)OC(=O)[C@H](C)N[P@](=O)(OC[C@H]1O[C@@H](N2\C=C/C(=O)NC2=O)[C@](C)(F)[C@@H]1O)OC3=CC=CC=C3 for NOMO1.
409

Identify the measured AUC of viability dose-response curve of O=C(O)CCNC(=O)c1ccc(/N=N/c2ccc(O)c(C(=O)O)c2)cc1 for NOMO1.
468

Identify the measured AUC of viability dose-response curve of COc1ccc(C(=O)c2c(C)n(CCN3CCOCC3)c3cc(I)ccc23)cc1 for NOMO1.
357

Identify the measured AUC of viability dose-response curve of CC[C@H]1OC(=O)[C@H](C)C(=O)[C@H](C)[C@@H](O[C@H]2O[C@H](C)C[C@H](N(C)C)[C@H]2O)[C@](C)(OC)C[C@@H](C)C(=O)[C@H](C)[C@H]2N(CCCCn3cnc(-c4cccnc4)c3)C(=O)O[C@]12C for NOMO1.
459

Identify the measured AUC of viability dose-response curve of O=C(N[C@H](CO)[C@H](O)c1ccc([N+](=O)[O-])cc1)C(Cl)Cl for NOMO1.
467

Identify the measured AUC of viability dose-response curve of O=C(O)c1cc(/N=N/c2ccc([S+](=O)([O-])Nc3ccccn3)cc2)ccc1O for NOMO1.
470

====

- Tested on: P12-Ichikawa
- measurementNotes: cell viability relative to DMSO control; higher = less cytotoxic
- assayContext: HPLM + 10% dialyzed FBS; 48 h; 0.00234 µM
quantityMeasured: cell viability (%)
I only need the number, in %, no unit after it.

Sample answers from the record:
CC#CCn1c(N2CCC[C@@H](N)C2)nc2c1c(=O)n(Cc1nc(C)c3ccccc3n1)c(=O)n2C :: 104
CCCN1CCO[C@@H]2c3cc(O)ccc3OC[C@H]21 :: 123
C[C@@H]1CCO[C@H]2CN\3/C=C(/C(=O)NCC4=C(F)C=C(F)C=C4)C(=O)\C(=C3C(=O)N12)O :: 109
C[C@]12CC[C@H]3[C@@H](CCC4=CC(=O)CC[C@@H]43)[C@@H]1CC[C@@H]2OC(=O)CCc1ccccc1 :: 115

# input compound: Cc1cc2c(C(N)=O)cccc2n1-c1nc2c(c(NCc3ccccc3)n1)COCC2 ; wanted: its cell viability
92.4

# input compound: Nc1c2c(nc3ccccc13)CCCC2 ; wanted: its cell viability
119

# input compound: COc1cc2c(cc1OC)CN(CCc1ccc(NC(=O)c3cc(OC)c(OC)cc3NC(=O)c3cnc4ccccc4c3)cc1)CC2 ; wanted: its cell viability
122

====

cell viability values for the compounds below.
- Test system: P12-Ichikawa
- measurementNotes: cell viability relative to DMSO control; higher = less cytotoxic
- assayContext: RPMI 5 mM glucose + 10% FBS; 48 h; 46.1 µM
I only need the number, in %, no unit after it.

COc1cc[nH]c2ncc(C(=O)C(=O)N3CCN(C(=O)c4ccccc4)C[C@H]3C)c1-2 :: 97.5
OCC(O)C(O)C(O)CO (centres undefined) :: 89.1

# input compound: CCc1ccc(/C=C2/SC(=S)NC2=O)cc1 ; wanted: its cell viability
87.9

# input compound: CCOC(=O)\C1=C\[C@]2(CC)CCCN3CCC4=C([C@H]23)[N]1C5=C4C=CC=C5 ; wanted: its cell viability
79.6

# input compound: CC[C@H]1OC(=O)[C@H](C)C(=O)[C@H](C)[C@@H](O[C@H]2O[C@H](C)C[C@H](N(C)C)[C@H]2O)[C@](C)(OC)C[C@@H](C)C(=O)[C@H](C)[C@H]2N(CCCCn3cnc(-c4cccnc4)c3)C(=O)O[C@]12C ; wanted: its cell viability
96.5

# input compound: CC#CCn1c(N2CCC[C@@H](N)C2)nc2c1c(=O)n(Cc1nc(C)c3ccccc3n1)c(=O)n2C ; wanted: its cell viability
94.9

# input compound: Nc1c2c(nc3ccccc13)CCCC2 ; wanted: its cell viability
89.2

# input compound: CCCCOc1c(C(=O)c2c(F)cc(C)cc2F)cnc2[nH]ncc12 ; wanted: its cell viability
77.9

# input compound: CCCCN(CCCC)CC(O)c1cc(Cl)cc2c1-c1ccc(Cl)cc1/C2=C/c1ccc(Cl)cc1 (centres undefined) ; wanted: its cell viability
82.5
